Biological target: CDK2/Cyclin E1 (Homo sapiens)
Construct: purchased 14-475
Test: Caliper Assay (LabChip EZ Reader mobility shift assay), inhibition of CDK2/Cyclin E1 activity
Type: biochemical
Conditions: 2.5 nM CDK2/Cyclin E1(14-475), 100 μM ATP, 30 min preincubation; read-out: Caliper Assay (CDK2/CCNE1): IC50
Method: Inhibition of CDK2/Cyclin E1 activity in the presence of compounds of the present disclosure was evaluated using a Caliper LabChip® EZ Reader mobility shift assay. […] The peptide substrate and product were measured, and the conversion ratio was used to determine the inhibition (as % activity and IC50 values) of CDK2/Cyclin E1. […]
readoutType: IC50

Recorded results for 3 compounds are shown here.
compound	targetDesc	IC50
O=C(c1cncs1)N1CC(c2nnc(C(F)(F)c3ccc(Cl)c(Cl)c3)o2)C2(C1)CN(C(=O)[C@H]1CCCN1)C2 (stereo partly drawn) [I-169 1st]	CDK2/Cyclin E1 (Homo sapiens)	> 10000 nM
CC1(C)C[C@@H]1C(=O)N1CC2(C1)CN(c1ncnc3ncsc13)CC2c1nnc(C(F)(F)c2ccc(Cl)cc2)o1 (stereo partly drawn) [I-37]	CDK2/Cyclin E1 (Homo sapiens)	1000 to 10000 nM
CC(C)(C#N)C(=O)N1CC2(CN(C(=O)c3cnccn3)CC2c2nnc(C(F)(F)c3ccc(Cl)c(Cl)c3)o2)C1 (stereo not drawn) [I-175]	CDK2/Cyclin E1 (Homo sapiens)	> 10000 nM

Data request: Which IC50 value belongs to CC1(C)C[C@@H]1C(=O)N1CC2(CN(C(=O)c3cncs3)CC2c2nnc(Cc3ccc(Cl)cc3)o2)C1 (stereo partly drawn) [I-30] ?
Data returned: 1000 to 10000 nM

Data request: Look up IC50: O=C(c1cncs1)N1CC(c2nnc(Cc3ccc(Cl)c(Cl)c3)o2)C2(C1)CN(c1ncccn1)C2 (stereo not drawn) [I-49]
Data returned: > 10000 nM

Data request: I am curious: what IC50 value has been reported for Cc1nc(C)c(C(=O)N2CC(c3nnc(C(C)c4cccc(C5(C(F)(F)F)CC5)n4)o3)C3(C2)CN(C(=O)[C@H]2CC2(C)C)C3)s1 (stereo partly drawn) [I-104] ?
Data returned: 100 to 1000 nM

Data request: Entry under review: CC1(C)CC1C(=O)N1CC2(CN(C(=O)c3cncs3)CC2(F)c2nnc(C(F)(F)c3ccc(Cl)c(Cl)c3)o2)C1 (single isomer, unassigned) [I-38 1st] . Reported IC50?
Data returned: > 10000 nM

Data request: Consider the compound O=C(c1cnc2ccccc2n1)N1CC(c2nnc(C(F)(F)c3ccc(Cl)c(Cl)c3)o2)C2(C1)CN(C(=O)[C@H]1CC1(F)F)C2 (stereo partly drawn) [I-165] and give its measured IC50.
Data returned: 1000 to 10000 nM

Data request: Return reported IC50; argument: Cc1ccc(Cc2nnc(C3CN(C(=O)c4cnn(Cc5ccccc5)c4)CC34CN(C(=O)[C@H]3CC3(C)C)C4)o2)nn1 (stereo partly drawn) [I-22]
Data returned: 1000 to 10000 nM

Data request: Recorded IC50 of O=C(c1cn[nH]c1)N1CC(c2nnc(C(F)(F)c3ccc(Cl)c(Cl)c3)o2)C2(C1)CN(C(=O)[C@H]1CC1(F)F)C2 (stereo partly drawn) [I-191] , please.
Data returned: 1000 to 10000 nM

* * *

Items are presented alongside their recorded pIC50.
Target: CDK2/Cyclin E1 (Homo sapiens)
Construct: purchased 14-475
Assay: Caliper Assay (LabChip EZ Reader mobility shift assay), inhibition of CDK2/Cyclin E1 activity
Type: biochemical
Conditions: 2.5 nM CDK2/Cyclin E1(14-475), 100 μM ATP, 30 min preincubation; read-out: Caliper Assay (CDK2/CCNE1): IC50
pIC50: −log10 of the molar value.

Previously resolved entries follow.
molecule	pIC50
CC1(C)C[C@@H]1C(=O)N1CC2(CN(C(=O)c3cncs3)CC2c2nnc(C(F)(F)c3ccc(C4CC4)cc3)o2)C1 (some centres unmarked)	6.00 to 7.00
CC1(C)C[C@@H]1C(=O)N1CC2(CN(C(=O)c3cncs3)CC2c2nnc(C(F)(F)c3ccccc3)o2)C1 (some centres unmarked)	5.00 to 6.00
CC1(C)C[C@@H]1C(=O)N1CC2(CN(C(=O)c3cnn(Cc4ccccc4)c3)CC2c2ncc(Cc3ccc(Cl)cc3)o2)C1 (some centres unmarked)	6.00 to 7.00
O=C([C@H]1CC1(F)F)N1CC2(C1)CN(C(=O)N1CCOCC1)CC2c1nnc(C(F)(F)c2ccc(Cl)c(Cl)c2)o1 (some centres unmarked)	< 5.00

Data request: # get_value(readout='pIC50', item= Cc1cc(C)n(Cc2nc(C3CN(C(=O)c4cnn(Cc5ccccc5)c4)CC34CN(C(=O)[C@H]3CC3(C)C)C4)no2)n1 (some centres unmarked) )
Data returned: 5.00 to 6.00

Data request: Name the reported pIC50 value associated with the molecule CC1(C)C[C@@H]1C(=O)N1CC2(CN(C(=O)c3cncs3)CC2c2cn(Cc3ccc(C4(C(F)(F)F)CC4)cc3)nn2)C1 (some centres unmarked)
Data returned: 6.00 to 7.00

Data request: Look up pIC50: O=C(c1cc(C(F)(F)F)n[nH]1)N1CC(c2nnc(C(F)(F)c3ccc(Cl)c(Cl)c3)o2)C2(CN(CC3CCCO3)C2)C1 (centres unmarked)
Data returned: < 4.00

Data request: Look up pIC50: O=C(c1[nH]ncc1C(F)(F)F)N1CC(c2nnc(C(F)(F)c3ccc(Cl)c(Cl)c3)o2)C2(CN(CC3CCCO3)C2)C1 (centres unmarked)
Data returned: < 4.00

Data request: Would you mind telling me what pIC50 value was observed for CC1(C)C[C@@H]1C(=O)N1CC2(CN(C(=O)c3cnn(Cc4ccccc4)c3)CC2c2nnc(Cc3ccc(Cl)c(Cl)c3)[nH]2)C1 (some centres unmarked) ?
Data returned: 5.00 to 6.00
